Values were extracted from paper PMC3681555.

Molecular target: PPARγ (Homo sapiens, UniProt P37231)
Sequence (P37231 235-505 limits assumed): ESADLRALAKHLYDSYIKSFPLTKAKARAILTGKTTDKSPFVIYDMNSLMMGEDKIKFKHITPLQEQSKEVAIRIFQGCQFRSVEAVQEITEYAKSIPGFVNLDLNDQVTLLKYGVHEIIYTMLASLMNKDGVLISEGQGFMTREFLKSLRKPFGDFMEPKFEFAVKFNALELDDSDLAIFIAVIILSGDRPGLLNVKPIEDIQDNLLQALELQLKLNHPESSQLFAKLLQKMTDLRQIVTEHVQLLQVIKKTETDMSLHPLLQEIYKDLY
Assay: competitive fluorescence polarization (PolarScreen PPARγ green kit); LC-MS shows no covalent adduct
MEASURED METRIC: pIC50
Answers are plain numbers, as −log10 of the molar value.

Recorded pIC50 for CCCCCCCCCCC[C@@H](C[C@@H]1OC(=O)[C@H]1CCCCCC)OC(=O)[C@H](CC(C)C)NC=O with PPARγ (Homo sapiens, UniProt P37231), please? 5.55
